system: LOX IMVI; test: Cytotoxicity against Homo sapiens (human) LOXIMVI cells after 48 hr by sulforhodamine B assay; assay type: functional
# GI50 per record follows

# Chem Smiles, GI50 / nM
records = [
    ("Nc1nc(Cl)c2ncn(Cc3cccc(CCl)c3)c2n1", 3380),
    ("ClCc1ccccc1Cn1cnc2c(Cl)nc(Cl)nc21", 150),
    ("ClCc1ccccc1Cn1cnc2nc(Cl)nc(Cl)c21", 160),
    ("ClCc1ccc(Cn2cnc3nc(Cl)nc(Cl)c32)cc1", 1620),
    ("ClCc1cccc(Cn2cnc3nc(Cl)nc(Cl)c32)c1", 230),
    ("ClCc1ccccc1Cn1cnc2c(Cl)ncnc21", 2130),
    ("ClCc1ccccc1Cn1cnc2ncnc(Cl)c21", 1340),
    ("ClCc1cccc(Cn2cnc3c(Cl)nc(Cl)nc32)c1", 1690),
    ("ClCc1cccc(Cn2cnc3c(Cl)ncnc32)c1", 1950),
    ("ClCc1ccc(Cn2cnc3c(Cl)nc(Cl)nc32)cc1", 2040),
    ("ClCc1cccc(Cn2cnc3ncnc(Cl)c32)c1", 3090),
    ("ClCc1ccc(Cn2cnc3c(Cl)ncnc32)cc1", 1000),
]

----------
test system: NCI-H460; assay: Cytotoxicity against Homo sapiens (human) NCI-H460 cells after 48 hr by sulforhodamine B assay; assay type: functional; conditions: NCI-H460, 48 h
Test Readout: TGI (µM)

# Chem Smiles, Units Label, Result Number
data = [
    ("ClCc1ccc(Cn2cnc3nc(Cl)nc(Cl)c32)cc1", "µM", 35.5),
    ("ClCc1ccccc1Cn1cnc2c(Cl)ncnc21", "µM", 44.7),
    ("ClCc1ccc(Cn2cnc3ncnc(Cl)c32)cc1", "µM", 4.26),
    ("Nc1nc(Cl)c2ncn(Cc3cccc(CCl)c3)c2n1", "µM", 15.8),
    ("ClCc1cccc(Cn2cnc3c(Cl)nc(Cl)nc32)c1", "µM", 6.31),
    ("ClCc1cccc(Cn2cnc3c(Cl)ncnc32)c1", "µM", 36.3),
    ("ClCc1ccccc1Cn1cnc2c(Cl)nc(Cl)nc21", "µM", 8.71),
    ("ClCc1cccc(Cn2cnc3ncnc(Cl)c32)c1", "µM", 4.46),
    ("ClCc1ccc(Cn2cnc3c(Cl)nc(Cl)nc32)cc1", "µM", 4.9),
    ("Nc1nc(Cl)c2ncn(Cc3ccccc3CCl)c2n1", "µM", 37.1),
    ("ClCc1ccc(Cn2cnc3c(Cl)ncnc32)cc1", "µM", 1.82),
    ("ClCc1ccccc1Cn1cnc2nc(Cl)nc(Cl)c21", "µM", 5.88),
    ("Nc1nc(Cl)c2ncn(Cc3ccc(CCl)cc3)c2n1", "µM", 9.95),
    ("ClCc1ccccc1Cn1cnc2ncnc(Cl)c21", "µM", 60.2),
    ("ClCc1cccc(Cn2cnc3nc(Cl)nc(Cl)c32)c1", "µM", 3.09),
]

----------
tested on: SNB-75; assay: Cytotoxicity against Homo sapiens (human) SNB75 cells after 48 hr by sulforhodamine B assay; format: functional; settings: SNB-75, 48 h
Just a reminder that ties go to condition not met: only GI50 strictly below 2000 nM counts as condition met.

# Chem Smiles, Category
data = [
    ("ClCc1cccc(Cn2cnc3ncnc(Cl)c32)c1", "condition met"),
    ("ClCc1ccc(Cn2cnc3nc(Cl)nc(Cl)c32)cc1", "condition not met"),
    ("ClCc1ccccc1Cn1cnc2c(Cl)ncnc21", "condition not met"),
    ("ClCc1ccccc1Cn1cnc2ncnc(Cl)c21", "condition not met"),
    ("ClCc1ccccc1Cn1cnc2c(Cl)nc(Cl)nc21", "condition met"),
    ("ClCc1cccc(Cn2cnc3c(Cl)ncnc32)c1", "condition not met"),
    ("ClCc1cccc(Cn2cnc3nc(Cl)nc(Cl)c32)c1", "condition met"),
    ("ClCc1ccccc1Cn1cnc2nc(Cl)nc(Cl)c21", "condition met"),
    ("Nc1nc(Cl)c2ncn(Cc3cccc(CCl)c3)c2n1", "condition not met"),
    ("ClCc1ccc(Cn2cnc3c(Cl)nc(Cl)nc32)cc1", "condition not met"),
]
